Molecular target: CD33 (Sino Biological, Cat #12238-H08H) (UniProt P20138 18-259)
Sequence (P20138 18-259 limits assumed): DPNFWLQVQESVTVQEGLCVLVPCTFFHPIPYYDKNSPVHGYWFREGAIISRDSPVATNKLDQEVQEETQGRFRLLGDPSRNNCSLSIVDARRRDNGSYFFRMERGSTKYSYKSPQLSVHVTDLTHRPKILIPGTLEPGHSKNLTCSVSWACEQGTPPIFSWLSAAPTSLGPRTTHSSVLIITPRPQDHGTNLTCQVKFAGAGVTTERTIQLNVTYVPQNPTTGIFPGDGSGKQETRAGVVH
Assay: BLI, IgG captured on anti-human Fc sensor, 50 nM CD33, pH 7.4 vs pH 5.4
measured-attribute: binding result

INSERT INTO measurements (binder, result) VALUES
  ('MYT2677 (antibody, V domains shown, IgG; vadastuximab VL variant #25 (P95H)) VH: QVQLVQSGAEVKKPGASVKVSCKASGYTFTNYDINWVRQAPGQGLEWIGWIYPGDGSTKYNEKFKAKATLTADTSTSTAYMELRSLRSDDTAVYYCASGYEDAMDYWGQGTTVTVSS VL: DIQMTQSPSSLSASVGDRVTINCKASQDINSYLSWFQQKPGKAPKTLIYRANRLVDGVPSRFSGSGSGQDYTLTISSLQPEDFATYYCLQYDEFHLTFGGGTKVEIK', 'binds'),
  ('MYT1248 (antibody, V domains shown, IgG; IMGN779 VH variant #36 (F105H)) VH: QVQLQQPGAEVVKPGASVKMSCKASGYTFTSYYIHWIKQTPGQGLEWVGVIYPGNDDISYNQKFQGKATLTADKSSTTAYMQLSSLTSEDSAVYYCAREVRLRYHDVWGQGTTVTVSS VL: EIVLTQSPGSLAVSPGERVTMSCKSSQSVFFSSSQKNYLAWYQQIPGQSPRLLIYWASTRESGVPDRFTGSGSGTDFTLTISSVQPEDLAIYYCHQYLSSRTFGQGTKLEIK', 'binds');
